Ref: patent EP0428132A1

Test system: Candida albicans IAM4888
Recorded MIC for the following molecules

Molecule	Uom	MIC
CN[C@@H]1[C@H](O[C@@H]2OC[C@@H](O)[C@H](O)[C@H]2O)[C@@H](O)[C@H](O[C@H]2c3cc(C)c(C(=O)N[C@H](C)C(=O)O)c(O)c3-c3c(cc4c(c3O)C(=O)c3cc(OC)cc(O)c3C4=O)[C@@H]2O)O[C@@H]1C [Pradimicin A, reference compound]	µg/mL	6.3
COc1cc(O)c2c(c1)C(=O)c1c(cc3c(c1O)-c1c(cc(C)c(C(=O)N[C@H](C)C(=O)O)c1O)[C@H](O[C@@H]1O[C@H](C)[C@H](N(C)C(=O)CN(C)C)[C@H](O[C@@H]4OC[C@@H](O)[C@H](O)[C@H]4O)[C@H]1O)[C@H]3O)C2=O	µg/mL	6.3
COc1cc(O)c2c(c1)C(=O)c1c(cc3c(c1O)-c1c(cc(C)c(C(=O)N[C@H](C)C(=O)O)c1O)[C@H](O[C@@H]1O[C@H](C)[C@H](N(C)C/C=C/C(=O)O)[C@H](O[C@@H]4OC[C@@H](O)[C@H](O)[C@H]4O)[C@H]1O)[C@H]3O)C2=O	µg/mL	50
COc1cc(O)c2c(c1)C(=O)c1c(cc3c(c1O)-c1c(cc(C)c(C(=O)N[C@H](C)C(=O)O)c1O)[C@H](O[C@@H]1O[C@H](C)[C@H](N(C)C(=O)CCN)[C@H](O[C@@H]4OC[C@@H](O)[C@H](O)[C@H]4O)[C@H]1O)[C@H]3O)C2=O	µg/mL	12.5
COc1cc(O)c2c(c1)C(=O)c1c(cc3c(c1O)-c1c(cc(C)c(C(=O)N[C@H](C)C(=O)O)c1O)[C@H](O[C@@H]1O[C@H](C)[C@H](N(C)CC(=O)O)[C@H](O[C@@H]4OC[C@@H](O)[C@H](O)[C@H]4O)[C@H]1O)[C@H]3O)C2=O	µg/mL	50
COC(=O)/C=C/CN(C)[C@@H]1[C@H](O[C@@H]2OC[C@@H](O)[C@H](O)[C@H]2O)[C@@H](O)[C@H](O[C@H]2c3cc(C)c(C(=O)N[C@H](C)C(=O)O)c(O)c3-c3c(cc4c(c3O)C(=O)c3cc(OC)cc(O)c3C4=O)[C@@H]2O)O[C@@H]1C	µg/mL	25
COc1cc(O)c2c(c1)C(=O)c1c(cc3c(c1O)-c1c(cc(C)c(C(=O)N[C@H](C)C(=O)O)c1O)[C@H](O[C@@H]1O[C@H](C)[C@H](N(C)C(=O)CN)[C@H](O[C@@H]4OC[C@@H](O)[C@H](O)[C@H]4O)[C@H]1O)[C@H]3O)C2=O	µg/mL	6.3
COc1cc(O)c2c(c1)C(=O)c1c(cc3c(c1O)-c1c(cc(C)c(C(=O)N[C@H](C)C(=O)O)c1O)[C@H](O[C@@H]1O[C@H](C)[C@H](N(C)C=O)[C@H](O[C@@H]4OC[C@@H](O)[C@H](O)[C@H]4O)[C@H]1O)[C@H]3O)C2=O	µg/mL	25
COc1cc(O)c2c(c1)C(=O)c1c(cc3c(c1O)-c1c(cc(C)c(C(=O)N[C@H](C)C(=O)O)c1O)[C@H](O[C@@H]1O[C@H](C)[C@H](NCS(=O)(=O)O)[C@H](O[C@@H]4OC[C@@H](O)[C@H](O)[C@H]4O)[C@H]1O)[C@H]3O)C2=O [Ex. 7, N-(sodiosulfomethyl) pradimicin C]	µg/mL	3.1
COc1cc(O)c2c(c1)C(=O)c1c(cc3c(c1O)-c1c(cc(C)c(C(=O)N[C@H](C)C(=O)O)c1O)[C@H](O[C@@H]1O[C@H](C)[C@H](N(C)CC(N)=O)[C@H](O[C@@H]4OC[C@@H](O)[C@H](O)[C@H]4O)[C@H]1O)[C@H]3O)C2=O	µg/mL	25
CCOC(=O)CN(C)[C@@H]1[C@H](O[C@@H]2OC[C@@H](O)[C@H](O)[C@H]2O)[C@@H](O)[C@H](O[C@H]2c3cc(C)c(C(=O)N[C@H](C)C(=O)O)c(O)c3-c3c(cc4c(c3O)C(=O)c3cc(OC)cc(O)c3C4=O)[C@@H]2O)O[C@@H]1C [Ex. 3, N-(ethoxycarbonylmethyl) pradimicin A]	µg/mL	25
